FYI, the data here is from patent US11331298B2.

Assay: Single dose randomized, crossover pharmacokinetic study in healthy volunteers
Format: in vivo, human
Details: human, in vivo, fasting, single oral dose, 500 mg film-coated tablets, mean
Description: A single dose randomized, crossover pharmacokinetic study in healthy volunteers under fasting conditions was performed using film-coated tablets containing 500 mg of (unformulated) quercetin dihydrate, 500 mg of quercetin (40%) powder solid dispersion (corresponding to 200 mg of quercetin dihydrate) and 250 mg of quercetin (40%) powder solid dispersion (corresponding to 100 mg of quercetin dihydrate).
quantityKind: AUC(0-inf) (ng·h/mL)
Numbers only here, please. The scale is ng·h/mL.

(Q) Look up and state reported AUC(0-inf) for O=c1c(O)c(-c2ccc(O)c(O)c2)oc2cc(O)cc(O)c12 [Quercetin dihydrate]
(A) 90.1
